Data credit: paper PMC12102759

tested on: G3BP1 NFT2; type: binding, human; conditions: library DMS-CoV; bait G3BP1 NFT2; prey N; peptide APRITFGGPSDSTGSN; listed as aa = residue placed at this position; column sums to 1
Assign DMS PSSM value, A (position 1) to each entry below.
Provide a numeric answer; units are not to be included.

Response field DMS PSSM value, A (position 1) (G3BP1 NFT2) for item APRITFGGPSDSTGSN A1W (WPRITFGGPSDSTGSN) : 0.0009046

For the sequence APRITFGGPSDSTGSN A1R (RPRITFGGPSDSTGSN) , the measured DMS PSSM value, A (position 1) on G3BP1 NFT2 was 0

The sequence APRITFGGPSDSTGSN A1P (PPRITFGGPSDSTGSN) on G3BP1 NFT2: DMS PSSM value, A (position 1) was 0.006009

Result for APRITFGGPSDSTGSN A1D (DPRITFGGPSDSTGSN) , tested on G3BP1 NFT2, DMS PSSM value, A (position 1): 0.5313

---

tested on: PABPC1 PABC; type: binding, human; settings: DMS-BM library, bait PABPC1 PABC, prey ATXN2, peptide TLNPNAKEFNPRSFSQ; N = wild type, row aa = residue at this position
experimental_readout: DMS-derived PSSM value, position N3
Form rule: numeric answer, no unit written next to it.

The reported value for TLNPNAKEFNPRSFSQ N3Y (TLYPNAKEFNPRSFSQ) in terms of DMS-derived PSSM value, position N3 is 0

Record TLNPNAKEFNPRSFSQ N3Q (TLQPNAKEFNPRSFSQ) , field DMS-derived PSSM value, position N3: 0.055

Recorded result, TLNPNAKEFNPRSFSQ N3R (TLRPNAKEFNPRSFSQ) , DMS-derived PSSM value, position N3: 0.02401

Form field DMS-derived PSSM value, position N3, entry TLNPNAKEFNPRSFSQ N3G (TLGPNAKEFNPRSFSQ) : 0

Reported DMS-derived PSSM value, position N3 of TLNPNAKEFNPRSFSQ N3D (TLDPNAKEFNPRSFSQ) : 0.1652

---

Provide the recorded Kd for the entries that follow.
molecular target: NSP3 UBl1 (Severe acute respiratory syndrome coronavirus 2, UniProt P0DTC1); assay: biochemical; format: binding, SARS‐CoV‐2
Please respond with the number in µM and leave the unit unwritten.

So the reported Kd for Ac-PSDEGALLQQLYLALR-NH2 [NCOA2 D1081Q] , on NSP3 UBl1 (Severe acute respiratory syndrome coronavirus 2, UniProt P0DTC1), turned out to be 24

Measured Kd for this entry Ac-PSDEQALLDQLYLALR-NH2 [NCOA2 G1077Q] on NSP3 UBl1 (Severe acute respiratory syndrome coronavirus 2, UniProt P0DTC1): 19

Value sought: Kd, system NSP3 UBl1 (Severe acute respiratory syndrome coronavirus 2, UniProt P0DTC1), item Ac-PSDEGALLDQLYLALR-NH2 [NCOA2 wt] . Result: 39

Noted Kd for Ac-PSDEQALLQQLYLALR-NH2 [NCOA2 G1077Q D1081Q] , tested on NSP3 UBl1 (Severe acute respiratory syndrome coronavirus 2, UniProt P0DTC1): 5.1

---

test system: PABPC1 PABC; type: binding, human; settings: DMS-BM library, bait PABPC1 PABC, prey ATXN2, TLNPNAKEFNPRSF(averaged) over the two overlapping peptides; N = wild type, row aa = residue at this position
Decision: DMS-derived PSSM value (averaged), position N5 >= 0.004 yields criterion met, all other cases yield criterion not met.

Task item: # bool: DMS-derived PSSM value (averaged), position N5 of TLNPNAKEFNPRSF(averaged) N5E (TLNPEAKEFNPRSF) >= 0.004
Reply: criterion met

Task item: Reported DMS-derived PSSM value (averaged), position N5 at or above 0.004? TLNPNAKEFNPRSF(averaged) N5H (TLNPHAKEFNPRSF)
Reply: criterion met

Task item: State whether the measured DMS-derived PSSM value (averaged), position N5 reaches 0.004, counting equality as reaching it, for TLNPNAKEFNPRSF(averaged) N5T (TLNPTAKEFNPRSF)
Reply: criterion met

Task item: Answer whether DMS-derived PSSM value (averaged), position N5 of TLNPNAKEFNPRSF(averaged) N5W (TLNPWAKEFNPRSF) is greater than or equal to 0.004.
Reply: criterion not met

Task item: Evaluate TLNPNAKEFNPRSF(averaged) N5Y (TLNPYAKEFNPRSF) : DMS-derived PSSM value (averaged), position N5 at minimum 0.004?
Reply: criterion met

Task item: Reported DMS-derived PSSM value (averaged), position N5 reaches at least 0.004 for TLNPNAKEFNPRSF ?
Reply: criterion met
